target: human serotonin transporter (Homo sapiens (Human)); assay: Human SERT (serotonin transporter) uptake assay; format: cell-based; conditions: read-out: hSERT Ki
Sequence (P31645 whole entry): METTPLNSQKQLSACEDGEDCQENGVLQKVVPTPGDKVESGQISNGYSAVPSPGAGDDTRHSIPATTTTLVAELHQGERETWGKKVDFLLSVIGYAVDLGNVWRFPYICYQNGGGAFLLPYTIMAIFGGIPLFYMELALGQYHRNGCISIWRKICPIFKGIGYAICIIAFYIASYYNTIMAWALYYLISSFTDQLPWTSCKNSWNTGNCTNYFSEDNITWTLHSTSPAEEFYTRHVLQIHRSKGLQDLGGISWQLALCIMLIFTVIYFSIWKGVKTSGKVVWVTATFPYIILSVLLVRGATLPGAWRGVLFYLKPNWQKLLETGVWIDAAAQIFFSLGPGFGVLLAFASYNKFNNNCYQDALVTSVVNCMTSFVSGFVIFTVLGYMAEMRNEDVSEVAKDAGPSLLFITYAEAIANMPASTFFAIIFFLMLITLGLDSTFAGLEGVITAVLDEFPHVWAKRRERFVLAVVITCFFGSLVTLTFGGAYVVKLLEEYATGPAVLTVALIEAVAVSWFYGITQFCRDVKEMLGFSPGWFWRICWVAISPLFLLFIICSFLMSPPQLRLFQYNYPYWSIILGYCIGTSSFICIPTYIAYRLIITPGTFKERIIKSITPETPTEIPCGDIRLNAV
quantity measured: Ki (nM)
One number for each entry, in nM.

These solved cases illustrate the format of a correct answer.
molecule | Ki [nM]
CNC[C@H](c1ccc2ccccc2c1)[C@H](OCc1cccc(=O)n1C)c1ccccc1 [Compound 79] | 6.4
CNC[C@H](c1ccc2ccccc2c1)[C@H](OC)c1ccccc1 [Compound 46] | 24.2
CNC[C@H](c1ccc(Cl)c(Cl)c1)[C@@H](O)c1ccccc1S(C)(=O)=O [Compound 170] | 2010
CNC[C@H](c1ccc(OC)c(C)c1)[C@H](O)c1cccnc1 [Compound 55] | 1.8
CNC[C@H](c1ccc2ccccc2c1)[C@@H](F)c1ccccc1 [Compound 11] | 4.2
CNC[C@H](c1ccc2ccccc2c1)[C@H](OCC(=O)NC1CCC1)c1ccccc1 [Compound 8] | 1.3

Please look at the items below and tell me Ki for each one, in order.
1. CNC[C@H](c1ccc(Cl)c(Cl)c1)[C@@H](O)c1ccccc1-c1cccs1 [Compound 100]
2. CNC[C@@H](c1ccc(Br)c(Cl)c1)[C@@H](O)c1ccccc1 [Compound 110]

Reply:
361
677

Origin of the recorded values: patent US9944618B2
